# Test system: RPMI-8226 leukemia
# Assay: NCI-60 one-dose screen, 48 h (100 = growth as untreated, 0 = no growth, -100 = all killed)
# Condition summary: 10 µM unless noted
About 83,000 compounds went through this panel and 20% of them were active in at least one assay; those are over-represented in the sample as a whole.
Exercise: for every item that follows, state its recorded growth.
Give bare numbers, in %.

Please review the entries below; each comes with its answer.
So, `Cc1cc(O)c2cc3c(O)c(O)ccc3cc2c1` ? Its growth was 115

So, `CC(=O)Cc1ccccn1` ? Its growth was 103

So, `O=C1SCN(Cc2ccccc2)CN1Cc1ccccc1` ? Its growth was 43.7

So, COc1cc(NCCC2CCCCN2)c2ncccc2c1OC (stereo unspecified) ? Its growth was 68.2

So, `COc1ccc2nc3ccccc3c(NCc3ccc(Cl)cc3)c2c1` ? Its growth was -44.9

So, `COc1ccc(NC(=O)c2sc3c(=O)[nH]c(C(F)(F)F)nc3c2C)cc1` ? Its growth was 95

Dear reader, for each entry below, please note its growth.
1. c1ccc(-c2ccc(-c3ccccc3)[nH]2)cc1
2. COc1cc(C2CC(c3ccc(Cl)cc3)=NN2C=O)ccc1Oc1ccnc2cc(Cl)ccc12 (stereo unspecified)
3. Nc1ncnc2c1N=C(c1ccc3c(c1)OCO3)CC(c1ccc(Cl)cc1)N2 (stereo unspecified)
4. CC(=O)O[C@H]1CC[C@]2(C)[C@H]3CC=C4[C@@H]5CC(C)(C)CC[C@]5(C(=O)OCC(COC(=O)C(Cl)Cl)(COC(=O)C(Cl)Cl)NC(=O)C(Cl)Cl)CC[C@@]4(C)[C@]3(C)CC[C@H]2C1(C)C
5. COc1cc(Nc2ncccc2/C=C/C(=O)c2cc(OC)c(OC)c(OC)c2)cc(OC)c1OC
6. CC1(C)CC(=O)c2cc3c(N)c(C(=O)Nc4ccc(Cl)cc4)sc3nc2C1
7. CC(C)(C)c1ccc(OC(=O)Nc2ccccc2)cc1
8. CC(=O)Oc1c(Cl)c(Cl)c(Cl)c(Cl)c1Cl

79.7
65.1
18.4
33.5
52.1
103
105
73.4

Dear reader, for each entry below, please note its growth.
1. O=C1OCC2=C1C(c1ccccc1)c1cc3c(cc1N2CCO)OCO3 (stereo unspecified)
2. CNC(=O)OC1C(O[C@H]2C[C@H]3[C@@H]4CC=C5C[C@@H](O)CC[C@]5(C)[C@H]4CC[C@]3(C)[C@H]2[C@H](C)C(=O)CCC(C)C)OCC(O)C1OC1OCC(O)C(O)C1OC(=O)c1ccc(OC)cc1 (stereo partly specified)
3. COc1cnc2c(c1)C(=O)c1c-2n(CCCN2CCNCC2)c(=O)c2cc(Cl)ccc12

[46.4, -25.5, -64.9]

Dear reader, for each entry below, please note its growth.
1. COc1cc(C)c(Cl)cc1C1=NN(c2ccc(S(N)(=O)=O)cc2)C(/C=C/c2ccccc2)C1 (stereo unspecified)
2. O=C1C(Cl)=C(Nc2cccc3ccccc23)C(=O)c2ccccc21
3. O=C(CSc1nnc(Cc2ccccc2Nc2c(Cl)cccc2Cl)n1-c1ccccc1)N1N=C(c2ccc3ccccc3c2)CC1c1ccc(Cl)cc1 (stereo unspecified)
4. O=C(Nc1ccc(Br)cc1)Nc1cccc(Br)c1

1: 35.8; 2: 17.8; 3: 95.6; 4: 8.97

---

Exercise: for every item that follows, state its recorded growth.
# Tested on: MDA-MB-231 breast
# Assay: NCI-60 one-dose screen, 48 h (100 = growth as untreated, 0 = no growth, -100 = all killed)
# Condition summary: 10 µM unless noted
This is part of a sample that, as a whole, favours compounds with a hit. Of some 83,000 tested, about 20% had one in any assay.
Answers are plain numbers, in %.

Please review the entries below; each comes with its answer.
So, COc1ccc(C(=O)C(CN(C)C)c2ccc(OC)cc2)cc1 (configuration not stated) ? Its growth was 59.4

So, `Cc1ccc(C(=O)CC(=O)C(F)(F)C(F)(F)C(F)(F)F)s1` ? Its growth was 92.1

So, CCN1C(=O)N(CC)C2C1NC(=O)N2/N=C/C=C/c1ccccc1 (configuration not stated) ? Its growth was 71.5

So, `CCN(CC)CCNC(=O)n1cc(-c2ccncc2)c(-c2cc(Cl)cc(OC)c2)n1` ? Its growth was 82.8

So, `CCOC(=O)N1C2CCC(C2)N1C(=O)OCC` ? Its growth was 115

Dear reader, for each entry below, please note its growth.
1. O=C(c1ccccc1)C1OC1C(=O)c1ccccc1 (configuration not stated)
2. N=C(N)c1ccc(-c2ccc(-c3cccs3)s2)cc1F
3. CCN(CC)c1ccc(/C=N/N=C(N)N)cc1
4. CCOCCNc1ccc(S(=O)(=O)c2ccc(N)cc2)cc1N
5. O=C(/C=C/c1ccc(F)cc1)N1CCN(C(=O)/C=C/c2ccc(C(F)(F)F)cc2)CC1
6. CN(C)c1ccc(/C=C\c2cccc[n+]2C)cc1
7. Nc1nc(N)c2cc(NCc3ccc(Cl)c(Cl)c3)ccc2n1

[25.9, -74.1, 66, 118, 96.8, 73.4, -86.8]
